- test-system: wild-type EGFR (Homo sapiens, UniProt P00533)
- Construct: purchased Signalchem
- Sequence (P00533 25-1210): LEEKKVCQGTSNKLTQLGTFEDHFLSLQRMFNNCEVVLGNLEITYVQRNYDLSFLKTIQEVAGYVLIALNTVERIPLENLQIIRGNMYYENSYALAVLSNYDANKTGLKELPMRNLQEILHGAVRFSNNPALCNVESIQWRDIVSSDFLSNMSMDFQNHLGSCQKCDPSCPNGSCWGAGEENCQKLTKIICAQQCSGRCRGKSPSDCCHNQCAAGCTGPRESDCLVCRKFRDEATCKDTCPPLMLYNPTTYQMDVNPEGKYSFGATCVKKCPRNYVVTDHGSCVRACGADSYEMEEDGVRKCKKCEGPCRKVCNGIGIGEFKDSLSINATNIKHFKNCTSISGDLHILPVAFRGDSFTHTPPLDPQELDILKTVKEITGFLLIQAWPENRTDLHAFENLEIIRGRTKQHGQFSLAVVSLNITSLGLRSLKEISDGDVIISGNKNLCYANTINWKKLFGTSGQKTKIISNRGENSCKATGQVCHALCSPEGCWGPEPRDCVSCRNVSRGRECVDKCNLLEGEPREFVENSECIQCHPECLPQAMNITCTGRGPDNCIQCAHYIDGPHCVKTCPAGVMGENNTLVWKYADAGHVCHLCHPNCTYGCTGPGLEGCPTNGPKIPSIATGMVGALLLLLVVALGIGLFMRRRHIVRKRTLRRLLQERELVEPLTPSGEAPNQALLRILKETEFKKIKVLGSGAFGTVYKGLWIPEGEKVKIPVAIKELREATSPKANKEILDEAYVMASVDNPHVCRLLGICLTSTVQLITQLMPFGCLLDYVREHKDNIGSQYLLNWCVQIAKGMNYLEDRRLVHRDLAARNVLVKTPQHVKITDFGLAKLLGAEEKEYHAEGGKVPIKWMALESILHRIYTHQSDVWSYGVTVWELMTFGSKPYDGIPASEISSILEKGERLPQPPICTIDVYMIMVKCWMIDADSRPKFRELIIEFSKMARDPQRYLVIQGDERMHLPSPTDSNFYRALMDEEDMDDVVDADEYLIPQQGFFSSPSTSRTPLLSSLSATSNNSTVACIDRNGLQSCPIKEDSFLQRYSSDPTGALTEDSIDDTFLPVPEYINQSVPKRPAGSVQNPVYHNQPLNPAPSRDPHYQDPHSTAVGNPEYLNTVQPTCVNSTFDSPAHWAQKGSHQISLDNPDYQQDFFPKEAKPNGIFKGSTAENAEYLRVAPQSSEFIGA
- protocol-details: Enzymology experiment in vitro (HTRF/FRET kinase activity), wild-type EGFR
- Assay type: biochemical
- experimental-conditions: HTRF KinEASE-TK, read-out: EGFR (WT) IC50
- Method: 1. Experimental Materials HTRF KinEASE-TK kit detection reagent, purchased from Cisbio 1) 10 nL of gradient diluted compound was transferred into a 384-well experimental plate using Echo 550 (Labcyte). 2) 5 μL of 2×EGFR enzyme solution was added to the 384-well experimental plate and incubated at room temperature for 10 minutes. 3) 5 μL of 2× substrate solution containing polypeptide and ATP was added to the 384-well experimental plate and incubated at room temperature for 40 minutes. […]
pIC50: −log10 of the molar value.
attribute-measured: pIC50

Past entries and their recorded results:
molecule	recorded-measurement
COc1cc(N2CCN(CC3CC3)CC2)c(-c2cnn(C)c2)cc1Nc1ncc(Br)c(Nc2ccc3nccnc3c2P(C)(C)=O)n1 [compound 235]	7.98
COc1cc(N2CCOCC2)c(-c2cnn(C)c2)cc1Nc1ncc(Br)c(Nc2ccc3c(c2P(C)(C)=O)CC3)n1	8.04
COCCN1CCC2(CC1)CCN(c1cc(OC)c(Nc3ncc(Br)c(Nc4ccc5nccnc5c4P(C)(C)=O)n3)cc1-c1cnn(C)c1)CC2	9.24
COc1cc(N2CCC3(CC2)CCN(C(C)C)CC3)c(-c2cnn(C)c2)cc1Nc1ncc(Br)c(Nc2ccc3nccnc3c2P(C)(C)=O)n1	8.98
COc1cc(N2CCC3(CCN(CC4CC4)CC3)CC2)c(-c2cnn(C)c2)cc1Nc1ncc(Br)c(Nc2ccc3nccnc3c2P(C)(C)=O)n1	8.71

a. COc1cc(N2CCC3(CC2)COC3)c(-c2cnn(C)c2)cc1Nc1ncc(Br)c(Nc2ccc3nccnc3c2P(C)(C)=O)n1
b. COc1cc(N2CCOCC2)c(-c2cn(C)nc2C)cc1Nc1ncc(Br)c(Nc2ccc3nccnc3c2P(C)(C)=O)n1
Q: Returns: the label, a or b , whose recorded pIC50 is the lower number. Output the label that corresponds to your choice.
A: b
(b: 7.02, a: 7.92)

A. COc1cc(N2CCC3(CC2)COCCN3C)c(-c2cnn(C)c2)cc1Nc1ncc(Br)c(Nc2cc3c(cc2N(C)S(C)(=O)=O)CC3)n1
B. COc1cc(N2CCC(N3CCN(C)CC3)CC2)c(-c2cscn2)cc1Nc1ncc(Br)c(Nc2ccc3nccnc3c2P(C)(C)=O)n1
C. COc1cc(N2CCN3CCCC3C2)c(-c2cnn(C)c2)cc1Nc1ncc(Br)c(Nc2ccc3nccnc3c2P(C)(C)=O)n1 (stereo not shown)
Q: Please put the entries in order of rising pIC50. Answer by listing the labels in the order asked for.
A: B, A, C
(B: 7.79, A: 8.24, C: 8.84)
